# assayOverview: Saturation mutagenesis of SEQ ID NO:109: dicamba decarboxylation activity of point mutants (CO2 released), fold of backbone (Tables 7, 8, Megatable 1)
# settings: decarboxylation activity (CO2 released) of point mutant vs unmutated backbone protein; backbone SEQ ID NO: 109
attributeMeasured: Fold Activity (fold)
Answer format: numeric, fold implied, no suffix.

GET /values?readout=Fold Activity&item= 146 (protein, Dicamba decarboxylase variant) MAQGKVALEEHFAIPETLQDSAGFVPGDYWKELQHRLLDIQDTRLKLMDAHGIETMILSLAAPAVQAIPDRRKAIEIARRANDFLAEECAKRPDRFLAFAALPLQDPDAATEELQRCVNDLGFVGALVNGFSQEGDGQTPLYYDLPQYRPFWGEVEKLDVPFYLHPRNPLPQDSRIYDGHPWLLGPTWAFAQETAVHALRLMASGLFDEHPRLNIILGHMGEGLPYMMYRIDHRIAWVKLPPRYPAKRRFMDYFNENFHITTSGNFRTQTLIDAILEIGADRILFSTDWPFENIDHAADWFNATSIAEADRVKIGRTNARRLFKLDGD
1.3

GET /values?readout=Fold Activity&item= 119 (protein, Dicamba decarboxylase variant clone:DC.5.034) MAKKPRIDMHSHFFPRISEQEAAKFDANHAPWLQVSAKGDTGSIMMGKNNFQPVYQALWDPAFRIEEMDAQGVDVQVTCATPVMFGYTWEANKAAQWAERMNDFALEFAAHNPQRIKVLAQVPLQDLDLACKEASRAVAAGHLGIQIGNHLGDKDLDDATLEAFLTHCANEDIPILVHGWDMMGGQRMKKWGLYWLVAHHAEVQLAILSLILSGAFERIPKSLKICFSHGGGSFAFTLGWVDEAWRHVDIVREDCPRPPSEYVDRFFVDSVGNPGALELLVSVMGEDRVMLGSDYPLTTGEQKIGGLVLSSNLGESAKDKIISGNASKFFNINV
1.6
